Recorded pKd values for a group of compounds are listed next.
- MEASUREMENT_TARGET: Histamine H2 receptor (Homo sapiens)
- PROCEDURE_TEXT: Binding affinity to human H2R expressed in human HEK293T cells incubated for 90 mins by flowcytometry
- Assay type: cell-based, HEK-293T
In plain terms, pKd is the concentration in mol/L turned into minus its base-10 logarithm.

## Input Look up pKd with Histamine H2 receptor (Homo sapiens) for this compound: Cc1cc(/C=C/C=C/c2ccc(N(C)C)cc2)cc(C)[n+]1CCCCCCNc1c(NCCCOc2cccc(CN3CCCCC3)c2)c(=O)c1=O.O=C(O)C(F)(F)F.O=C([O-])C(F)(F)F
## Output 7.84

## Input Look up pKd with Histamine H2 receptor (Homo sapiens) for this compound: Cc1cc(/C=C/C=C/c2ccc(N(C)C)cc2)cc(C)[n+]1CCCCNc1c(NCCCOc2cccc(CN3CCCCC3)c2)c(=O)c1=O.O=C(O)C(F)(F)F.O=C([O-])C(F)(F)F
## Output 7.55

## Input Look up pKd with Histamine H2 receptor (Homo sapiens) for this compound: CC1(C)C(/C=C/C=C/C=C2\N(CCCCCC(=O)NCCCCNc3c(NCCCOc4cccc(CN5CCCCC5)c4)c(=O)c3=O)c3ccccc3C2(C)C)=[N+](CCCCS(=O)(=O)[O-])c2ccccc21.O=C(O)C(F)(F)F.O=C(O)C(F)(F)F
## Output 6.25

---

- MEASUREMENT_TARGET: Histamine H2 receptor (Homo sapiens, UniProt P25021)
- Sequence (P25021 whole entry): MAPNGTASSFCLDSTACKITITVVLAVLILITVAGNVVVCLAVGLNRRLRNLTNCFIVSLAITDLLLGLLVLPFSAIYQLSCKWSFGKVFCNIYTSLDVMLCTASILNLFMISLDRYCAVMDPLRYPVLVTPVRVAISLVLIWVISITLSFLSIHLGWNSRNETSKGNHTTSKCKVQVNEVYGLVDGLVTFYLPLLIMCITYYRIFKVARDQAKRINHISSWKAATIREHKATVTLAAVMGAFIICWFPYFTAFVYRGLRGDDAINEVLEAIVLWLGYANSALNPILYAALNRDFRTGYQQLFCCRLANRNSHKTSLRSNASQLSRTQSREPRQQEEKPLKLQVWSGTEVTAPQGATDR
- PROCEDURE_TEXT: Binding affinity to human H2R expressed in human HEK293T cells incubated for 60 mins by automated cell imaging analysis
- Type: cell-based, HEK-293T
pKd: −log10 of the molar value.
Answer FALSE if pKd is under 7, and TRUE if it is 7 or more.

# RECORD_SMILES, QUALITATIVE_LABEL
data = [
    ("CC1(C)C(/C=C/C=C/C=C2\\N(CCCCCC(=O)NCCCCCCNc3c(NCCCOc4cccc(CN5CCCCC5)c4)c(=O)c3=O)c3cc(S(=O)(=O)O)ccc3C2(C)C)=[N+](CCCCS(=O)(=O)[O-])c2ccccc21.O=C(O)C(F)(F)F.O=C(O)C(F)(F)F", "FALSE"),
]

Next, consider the following compound.
## Input Reported pKd at or above 7? CC1(C)C(/C=C/C=C/C=C2\N(CCCCCC(=O)NCCCCCCNc3c(NCCCOc4cccc(CN5CCCCC5)c4)c(=O)c3=O)c3ccccc3C2(C)C)=[N+](CCCCS(=O)(=O)[O-])c2ccccc21.O=C(O)C(F)(F)F.O=C(O)C(F)(F)F
## Output TRUE

---

- MEASUREMENT_TARGET: Histamine H2 receptor (Homo sapiens, UniProt P25021)
- CONDITION_SUMMARY: Sf9
MEASUREMENT_TYPE: pKb
Please give only the number in your answer, with no unit.

# RECORD_SMILES, QUANTITATIVE_RESULT
records = [
    ("C[N+]1=C(/C=C/C=C/C=C2\\N(CCCCCC(=O)NCCCCCCNc3c(NCCCOc4cccc(CN5CCCCC5)c4)c(=O)c3=O)c3ccccc3C2(C)C)C(C)(C)c2ccccc21.O=C(O)C(F)(F)F.O=C([O-])C(F)(F)F", 7.73),
]

## Input Look up pKb with Histamine H2 receptor (Homo sapiens, UniProt P25021) for this molecule: Cc1cc(/C=C/C=C/c2ccc(N(C)C)cc2)cc(C)[n+]1CCCCCCNc1c(NCCCOc2cccc(CN3CCCCC3)c2)c(=O)c1=O.O=C(O)C(F)(F)F.O=C([O-])C(F)(F)F
## Output 7.21

## Input Look up pKb with Histamine H2 receptor (Homo sapiens, UniProt P25021) for this molecule: Cc1cc(/C=C/C=C/c2ccc(N(C)C)cc2)cc(C)[n+]1CCCCCCCNc1c(NCCCOc2cccc(CN3CCCCC3)c2)c(=O)c1=O.O=C(O)C(F)(F)F.O=C([O-])C(F)(F)F
## Output 7.85

## Input Look up pKb with Histamine H2 receptor (Homo sapiens, UniProt P25021) for this molecule: CC1(C)C(/C=C/C=C/C=C2\N(CCCCCC(=O)NCCCCCCNc3c(NCCCOc4cccc(CN5CCCCC5)c4)c(=O)c3=O)c3ccccc3C2(C)C)=[N+](CCCCS(=O)(=O)[O-])c2ccccc21.O=C(O)C(F)(F)F.O=C(O)C(F)(F)F
## Output 6.49

---

Recorded Kd values for a group of compounds are listed next.
- MEASUREMENT_TARGET: Histamine H2 receptor (Homo sapiens, UniProt P25021)
- PROCEDURE_TEXT: Binding affinity to human H2R expressed in human HEK293T cells incubated for 60 mins by automated cell imaging analysis
- Type: cell-based, HEK-293T
Numeric only. Scale: nM

# RECORD_SMILES, MEASUREMENT_TARGET, QUANTITY_UNIT, Kd
records = [
    ("Cc1cc(/C=C/C=C/c2ccc(N(C)C)cc2)cc(C)[n+]1CCCCNc1c(NCCCOc2cccc(CN3CCCCC3)c2)c(=O)c1=O.O=C(O)C(F)(F)F.O=C([O-])C(F)(F)F", "Histamine H2 receptor (Homo sapiens, UniProt P25021)", "nM", 74.1),
    ("C[N+]1=C(/C=C/C=C/C=C2\\N(CCCCCC(=O)NCCCCNc3c(NCCCOc4cccc(CN5CCCCC5)c4)c(=O)c3=O)c3ccccc3C2(C)C)C(C)(C)c2ccccc21.O=C(O)C(F)(F)F.O=C([O-])C(F)(F)F", "Histamine H2 receptor (Homo sapiens, UniProt P25021)", "nM", 120),
]

# context switch: different compound, same Kd
## Input What Kd value was documented for this compound, Cc1cc(/C=C/C=C/c2ccc(N(C)C)cc2)cc(C)[n+]1CCCCCCCNc1c(NCCCOc2cccc(CN3CCCCC3)c2)c(=O)c1=O.O=C(O)C(F)(F)F.O=C([O-])C(F)(F)F ?
## Output 89.1
